For each record, write down the corresponding pIC50.
SYSTEM NAME: SARS-CoV-2 3CL^pro (Severe acute respiratory syndrome coronavirus 2, UniProt P0DTD1)
Give only the number. pIC50 is defined as minus log10 of concentration in molar units.

Sample COc1ccc(S(=O)(=O)N(CC(C)O)CC(O)C(Cc2ccccc2)NC(=O)c2ccc(O)c(O)c2)cc1 (centres unmarked) , system: SARS-CoV-2 3CL^pro (Severe acute respiratory syndrome coronavirus 2, UniProt P0DTD1). Its pIC50 is 5.20

Sample COc1ccc(S(=O)(=O)N(CC(C)O)CC(O)C(Cc2ccccc2)NC(=O)C2(O)CC(O)C(O)C(OC(=O)C=Cc3ccc(O)c(O)c3)C2)cc1 (centres unmarked) , system: SARS-CoV-2 3CL^pro (Severe acute respiratory syndrome coronavirus 2, UniProt P0DTD1). Its pIC50 is 5.46

---

For each record, write down the corresponding CC50.
MEASUREMENT PROTOCOL: in vitro
ASSAY SETUP: human
Your answer is read as µM, so omit the unit and give the number.

CC50 recorded for this molecule, COc1ccc(S(=O)(=O)N(CC(C)O)CC(O)C(Cc2ccccc2)NC(=O)C2(O)CC(O)C(O)C(OC(=O)C=Cc3ccc(O)c(O)c3)C2)cc1 (centres unmarked) , is 49

CC50 recorded for this molecule, COc1ccc(S(=O)(=O)N(CC(C)O)CC(O)C(Cc2ccccc2)NC(=O)c2ccc(O)c(O)c2)cc1 (centres unmarked) , is 24.8

---

SYSTEM NAME: SARS-CoV-2 3CL^pro (Severe acute respiratory syndrome coronavirus 2, UniProt P0DTD1)
MEASUREMENT PROTOCOL: cell-based
For each record, write down the corresponding EC50.
Your answer is read as µM, so omit the unit and give the number.

EC50 recorded for this compound, COc1ccc(S(=O)(=O)N(CC(C)O)CC(O)C(Cc2ccccc2)NC(=O)c2ccc(O)c(O)c2)cc1 (centres unmarked) [29#] , is 8.9

EC50 recorded for this compound, COc1ccc(S(=O)(=O)N(CC(C)O)CC(O)C(Cc2ccccc2)NC(=O)C2(O)CC(O)C(O)C(OC(=O)C=Cc3ccc(O)c(O)c3)C2)cc1 (centres unmarked) [50#] , is 13.5
